# TARGET_OF_ASSAY: CDK2/Cyclin E1 full length (Homo sapiens (Human))
# ASSAY: CDK2/Cyclin E1 full length mobility shift assay
QUANTITY: Ki (nM)
Please state the figure in nM; there is no need to write the unit.

*Q* Quick one: Ki of COc1cc(CC(=O)Nc2cc([C@H]3CC[C@@H](OC(=O)N(C)C(C)C)C3)[nH]n2)ccn1 [Example 58] ?
*A* 0.21

*Q* Quick one: Ki of Cc1ncc(CC(=O)Nc2cc([C@H]3CC[C@@H](OC(=O)NCC(F)F)C3)[nH]n2)s1 [Example 249] ?
*A* 2.32

*Q* Quick one: Ki of Cn1ncc(CC(=O)Nc2cc([C@H]3CC[C@@H](OC(=O)NCCC(F)(F)F)C3)[nH]n2)n1 [Example 217] ?
*A* 2.22

*Q* Quick one: Ki of Cc1cnc(CC(=O)Nc2cc([C@H]3CC[C@@H](OC(=O)N4[C@@H](C)C[C@@H]4C)C3)[nH]n2)cn1 [Example 608] ?
*A* 1.11

*Q* Quick one: Ki of Cn1ccc(CC(=O)Nc2cc([C@H]3CC[C@@H](OC(=O)NC4(C)CC4)C3)[nH]n2)n1 [Example 421] ?
*A* 0.94

*Q* Quick one: Ki of Cc1cccnc1CC(=O)Nc1cc([C@H]2CC[C@@H](OC(=O)NC3(C)CC3)C2)[nH]n1 [Example 427] ?
*A* 1.78

*Q* Quick one: Ki of Cc1nc(CC(=O)Nc2cc([C@H]3CC[C@@H](OC(=O)NC(C)(C)C)C3)[nH]n2)cs1 [Example 304] ?
*A* 1.41

*Q* Quick one: Ki of CCCNC(=O)O[C@H]1CC[C@@H](c2cc(NC(=O)Cc3ccc(OCCN)cc3)n[nH]2)C1 [Example 198] ?
*A* 0.28

*Q* Quick one: Ki of COCCn1nccc1C(=O)Nc1cc([C@H]2CC[C@@H](OC(=O)NC(C)CC(F)(F)F)C2)[nH]n1 (single isomer, unassigned) [Example 87] ?
*A* 1.32

*Q* Quick one: Ki of CC[C@H](C)NC(=O)O[C@@H]1CC[C@H](c2cc(NC(=O)Cc3ccnc(C)c3)n[nH]2)C1 [Example 335] ?
*A* 0.41

*Q* Quick one: Ki of CC[C@H](C)NC(=O)O[C@@H]1CC[C@H](c2cc(NC(=O)Cc3cn4nc(C)sc4n3)n[nH]2)C1 [Example 359] ?
*A* 0.39

*Q* Quick one: Ki of CCN(C)C(=O)O[C@@H]1CC[C@H](c2cc(NC(=O)Cc3ccc(C)nc3)n[nH]2)C1 [Example 237] ?
*A* 0.64

*Q* Quick one: Ki of COc1cc(CC(=O)Nc2cc([C@H]3CC[C@@H](OC(=O)NC(C)C(C)(F)F)C3)[nH]n2)ccn1 (single isomer, unassigned) [Example 392] ?
*A* 3.14

*Q* Quick one: Ki of CC[C@H](C)NC(=O)O[C@@H]1CC[C@H](c2cc(NC(=O)Cc3c(S(C)(=O)=O)c4ccccc4n3C)n[nH]2)C1 [Example 377] ?
*A* 1.14

*Q* Quick one: Ki of Cc1cc(Cl)cnc1CC(=O)Nc1cc([C@H]2CC[C@@H](OC(=O)NC3(C)CC3)C2)[nH]n1 [Example 439] ?
*A* 2.37

*Q* Quick one: Ki of CC1(NC(=O)O[C@@H]2CC[C@H](c3cc(NC(=O)Cc4cc(F)cc(F)c4)n[nH]3)C2)CCOC1 (single isomer, unassigned) [Example 120] ?
*A* 0.09

*Q* Quick one: Ki of COc1cnc(CC(=O)Nc2cc([C@H]3CC[C@@H](OC(=O)NC4(C)CC4)C3)[nH]n2)cn1 [Example 6] ?
*A* 0.38

*Q* Quick one: Ki of CCCNC(=O)O[C@@H]1CC[C@H](c2cc(NC(=O)Cc3cc(OC)ncc3S(C)(=O)=O)n[nH]2)C1 [Example 214] ?
*A* 0.37

*Q* Quick one: Ki of CC[C@@H](C)NC(=O)O[C@H]1CC[C@@H](c2cc(NC(=O)Cc3ccno3)n[nH]2)C1 [Example 29] ?
*A* 0.16

*Q* Quick one: Ki of COc1ccc(CC(=O)Nc2cc([C@H]3CC[C@@H](OC(=O)N4C[C@@](C)(O)[C@@H]4C)C3)[nH]n2)cn1 [Example 627] ?
*A* 0.51

*Q* Quick one: Ki of Cc1ccc(F)c(CC(=O)Nc2cc([C@H]3CC[C@@H](OC(=O)NC4(C)CC4)C3)[nH]n2)n1 [Example 435] ?
*A* 1.49

*Q* Quick one: Ki of C[C@]1(O)CC[C@@H](NC(=O)O[C@H]2CC[C@@H](c3cc(NC(=O)Cc4ccc(F)cc4)n[nH]3)C2)CC1 [Example 560] ?
*A* 0.6

*Q* Quick one: Ki of C[C@H](F)[C@H](C)NC(=O)O[C@@H]1CC[C@H](c2cc(NC(=O)Cc3cnn(C)c3)n[nH]2)C1 (single isomer, unassigned) [Example 382] ?
*A* 0.77

*Q* Quick one: Ki of CC1(NC(=O)O[C@@H]2CC[C@H](c3cc(NC(=O)Cc4cc(F)cc(F)c4)n[nH]3)C2)CCOC1 (single isomer, unassigned) [Example 121] ?
*A* 0.08

*Q* Quick one: Ki of COc1cnc(CC(=O)Nc2cc([C@H]3CC[C@@H](OC(=O)NC4(C)CCOC4)C3)[nH]n2)cn1 (single isomer, unassigned) [Example 486] ?
*A* 1.46

*Q* Quick one: Ki of COc1ccc(S(C)(=O)=O)c(CC(=O)Nc2cc([C@H]3CC[C@@H](OC(=O)NC(C)(C)C)C3)[nH]n2)c1 [Example 319] ?
*A* 0.39

*Q* Quick one: Ki of COc1ccc(CC(=O)Nc2cc([C@@H]3CC[C@H](OC(=O)N[C@H]4CC[C@@](C)(O)CC4)C3)[nH]n2)cn1 [Example 570] ?
*A* 0.35
